Ref: patent US20220177587A1

target: huPD-L1 (Homo sapiens, UniProt Q9NZQ7); assay: Flow binding to CHO cells stably expressing PD-L1; parameters: huCTLA4 and huPD-L1, full-length mammalian surface expression constructs were generated; expressed in transfected cells; host or cells: CHO cells, lentiviral transduction, sorted to >98% purity; settings: Table E4; binding to PD-L1 compared to binding to CD28
Sequence (Q9NZQ7 19-290): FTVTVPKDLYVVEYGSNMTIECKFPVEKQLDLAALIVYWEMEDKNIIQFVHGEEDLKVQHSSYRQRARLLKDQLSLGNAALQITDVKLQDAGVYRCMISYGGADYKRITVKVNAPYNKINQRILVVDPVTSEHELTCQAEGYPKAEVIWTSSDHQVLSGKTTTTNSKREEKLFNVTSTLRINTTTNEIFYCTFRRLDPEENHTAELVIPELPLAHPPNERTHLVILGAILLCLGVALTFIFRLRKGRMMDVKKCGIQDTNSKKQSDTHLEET
Each entry below carries its recorded Ratio of PDL1:CD28.
Give the value as a plain number.

Molecule: R29H/E35D/M43V/M47I/I49V (protein, UniProt P33681 35-288, looked up, variant R29H E35D M43V M47I I49V) T-lymphocyte activation …: VIHVTKEVKEVATLSCGHNVSVEELAQTHIYWQKDKKMVLTMVSGDINVWPEYKNRTIFDITNNLSIVILALRPSDEGTYECVVLKYEKDAFKREHLAEVTLSVKADFPTPSISDFEIPTSNIRRIICSTSGGFPEPHLSWLENGEELNAINTTVSQDPETELYAVSSKLDFNMTTNHSFMCLIKYGHLRVNQTFNWNTTKQEHFPDNLLPSWAITLISVNGIFVICCLTYCFAPRCRERRRNERLRRESVRPV
Quantity kind: Ratio of PDL1:CD28
Measured: 5

# input for lookup
# Ratio of PDL1:CD28 lookup, item E35D/M47I/L85Q/D90G (protein, UniProt P33681 35-288, looked up, variant E35D M47I L85Q D90G) T-lymphocyte activation …: VIHVTKEVKEVATLSCGHNVSVEELAQTRIYWQKDKKMVLTMMSGDINIWPEYKNRTIFDITNNLSIVILALRPSDEGTYECVVQKYEKGAFKREHLAEVTLSVKADFPTPSISDFEIPTSNIRRIICSTSGGFPEPHLSWLENGEELNAINTTVSQDPETELYAVSSKLDFNMTTNHSFMCLIKYGHLRVNQTFNWNTTKQEHFPDNLLPSWAITLISVNGIFVICCLTYCFAPRCRERRRNERLRRESVRPV
9
